Molecular target: UniProt P55210
Sequence (P55210 24-198 limits assumed): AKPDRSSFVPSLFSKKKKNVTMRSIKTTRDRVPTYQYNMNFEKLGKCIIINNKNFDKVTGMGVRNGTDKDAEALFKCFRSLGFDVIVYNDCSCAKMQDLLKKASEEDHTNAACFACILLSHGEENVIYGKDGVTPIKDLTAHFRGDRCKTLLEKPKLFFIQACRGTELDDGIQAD
Sequence (P55210 207-303 limits assumed): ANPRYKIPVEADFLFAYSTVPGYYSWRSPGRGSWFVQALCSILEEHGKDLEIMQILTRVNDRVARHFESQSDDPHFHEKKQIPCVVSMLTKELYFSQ
Experiment: Inhibition of Caspase-7 enzyme
EXPERIMENTAL ENDPOINT: IC50 (µM)

# annotated cases, reported IC50 shown
COMPOUND: CC(C)CC(NC(=O)CNCC(Cc1ccccc1)c1ccccc1)C(=O)N[C@H]1CC(=O)OC1O (some centres undefined)
STUDY TARGET: UniProt P55210
EXPERIMENTAL ENDPOINT: IC50
UNIT LABEL: µM
MEASURED: 2.92
--
COMPOUND: CC(C)C(NC(=O)COc1cccc2ccccc12)C(=O)N[C@H]1CC(=O)OC1O (some centres undefined)
STUDY TARGET: UniProt P55210
EXPERIMENTAL ENDPOINT: IC50
UNIT LABEL: µM
MEASURED: 2.1
--
COMPOUND: CC(C)C(NC(=O)CNc1cccc2ccccc12)C(=O)N[C@H]1CC(=O)OC1O (some centres undefined)
STUDY TARGET: UniProt P55210
EXPERIMENTAL ENDPOINT: IC50
UNIT LABEL: µM
MEASURED: 6.14
--
COMPOUND: CC(C)C(NC(=O)COc1cc2ccccc2cc1NS(=O)(=O)C(F)(F)F)C(=O)N[C@H]1CC(=O)OC1O (some centres undefined)
STUDY TARGET: UniProt P55210
EXPERIMENTAL ENDPOINT: IC50
UNIT LABEL: µM
MEASURED: 43.7
--
COMPOUND: CC(C)C(NC(=O)COc1cccc2c(NS(=O)(=O)C(F)(F)F)cccc12)C(=O)N[C@H]1CC(=O)OC1O (some centres undefined)
STUDY TARGET: UniProt P55210
EXPERIMENTAL ENDPOINT: IC50
UNIT LABEL: µM
MEASURED: 11

I. CC(C)CC(NC(=O)CNc1cccc2ccccc12)C(=O)N[C@H]1CC(=O)OC1O (some centres undefined)
II. CC(C)C(NC(=O)COc1ccc2ccccc2c1C(=O)O)C(=O)N[C@H]1CC(=O)OC1O (some centres undefined)
III. CC(C)C[C@H](NC(=O)C(C)Nc1cccc2ccccc12)C(=O)N[C@H]1CC(=O)OC1O (some centres undefined)
Problem: Exam item: list the entries in increasing order of IC50. # the answer lists labels in the order requested
Solution: I, III, II

* * *

Target: Caspase-8 (Homo sapiens)
Sequence (Q14790 217-374 limits assumed): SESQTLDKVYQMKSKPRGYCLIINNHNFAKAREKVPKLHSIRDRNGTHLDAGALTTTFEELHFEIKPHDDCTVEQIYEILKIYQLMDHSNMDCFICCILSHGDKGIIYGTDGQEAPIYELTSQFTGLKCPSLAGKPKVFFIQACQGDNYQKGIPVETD
Sequence (Q14790 385-479 limits assumed): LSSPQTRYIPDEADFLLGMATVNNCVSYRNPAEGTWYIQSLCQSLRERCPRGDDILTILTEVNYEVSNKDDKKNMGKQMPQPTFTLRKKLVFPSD
Assay: Inhibitory concentration of compound required against Caspase-8 enzyme compared to acylated dipeptides
EXPERIMENTAL ENDPOINT: pIC50
Kindly note that pIC50 refers to -log10 of the concentration in mol/L and answer with the value alone.

Problem: # lookup: pIC50 of CC(=O)N[C@@H](CC(=O)O)C(=O)N[C@@H](CCC(=O)O)C(=O)N[C@H](C(=O)N[C@H]1CC(=O)OC1O)C(C)C (stereo partly specified)
Solution: 7.10

* * *

Biological target: Caspase-3 (Homo sapiens, UniProt P42574)
Sequence (P42574 whole entry): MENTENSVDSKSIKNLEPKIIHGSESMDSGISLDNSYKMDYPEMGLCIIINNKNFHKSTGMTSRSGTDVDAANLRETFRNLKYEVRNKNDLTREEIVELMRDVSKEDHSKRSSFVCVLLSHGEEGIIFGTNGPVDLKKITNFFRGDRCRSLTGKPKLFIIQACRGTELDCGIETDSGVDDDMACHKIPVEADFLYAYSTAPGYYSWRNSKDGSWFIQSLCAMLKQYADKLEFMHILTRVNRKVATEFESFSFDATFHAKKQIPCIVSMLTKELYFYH
Experiment: Inhibition of Caspase-3
EXPERIMENTAL ENDPOINT: IC50 (nM)

Worked examples, 4 compounds total:
COMPOUND: CC(C)CC(NC(=O)[C@@H](CCC(=O)O)Oc1cccc2ccccc12)C(=O)N[C@H]1CC(=O)OC1O (some centres undefined)
IC50 (nM): 21

COMPOUND: CC(C)CC(NC(=O)CNc1cccc2ccccc12)C(=O)N[C@H]1CC(=O)OC1O (some centres undefined)
IC50 (nM): 13

COMPOUND: CC(C)C(NC(=O)COc1cc2ccccc2cc1C(=O)O)C(=O)N[C@H]1CC(=O)OC1O (some centres undefined)
IC50 (nM): 731

COMPOUND: CC(C)C(NC(=O)COc1ccc2ccccc2c1C(=O)O)C(=O)N[C@H]1CC(=O)OC1O (some centres undefined)
IC50 (nM): 401

A. CC(C)C(NC(=O)COc1cccc2c(NS(=O)(=O)C(F)(F)F)cccc12)C(=O)N[C@H]1CC(=O)OC1O (some centres undefined)
B. CC(C)C(NC(=O)CCOc1cccc2ccccc12)C(=O)N[C@H]1CC(=O)OC1O (some centres undefined)
Problem: Param metric = IC50; output whichever of A , B has the minimum value. Your choice should be expressed through its label.
Solution: A
(A: 207 nM, B: 4400 nM)

I. CC(C)C(NC(=O)COc1cc2ccccc2cc1NS(=O)(=O)C(F)(F)F)C(=O)N[C@H]1CC(=O)OC1O (some centres undefined)
II. CC(C)C[C@H](NC(=O)C(C)Nc1cccc2ccccc12)C(=O)N[C@H]1CC(=O)OC1O (some centres undefined)
Problem: Select the item whose IC50 value is smaller, choosing between I and II . Bench note: the answer is the label of the chosen record.
Solution: II

I. CC(C)C(NC(=O)COc1c(C(=O)O)ccc2ccccc12)C(=O)N[C@H]1CC(=O)OC1O (some centres undefined)
II. CC(C)C(NC(=O)COc1cccc2ccccc12)C(=O)N[C@H]1CC(=O)OC1O (some centres undefined)
III. CC(C)C(NC(=O)CNc1cccc2ccccc12)C(=O)N[C@H]1CC(=O)OC1O (some centres undefined)
Problem: Ascending by IC50, please: list the compounds accordingly. Write the labels in rank order as requested.
Solution: I, II, III

a. CC(C)CC(NC(=O)CNc1cccc(Oc2ccccc2)c1)C(=O)N[C@H]1CC(=O)OC1O (some centres undefined)
b. CC(C)CC(NC(=O)[C@H](CCC(=O)O)Oc1cccc2ccccc12)C(=O)N[C@H]1CC(=O)OC1O (some centres undefined)
Problem: Between a and b , whose recorded IC50 is greater? Label of pick, please.
Solution: a
